Entries and their IC50 Ratio (IC50 compound/IC50 PYY(3-36))
System Under Test: human Y2 receptor (human) (UniProt P49146)
Sequence (P49146 whole entry): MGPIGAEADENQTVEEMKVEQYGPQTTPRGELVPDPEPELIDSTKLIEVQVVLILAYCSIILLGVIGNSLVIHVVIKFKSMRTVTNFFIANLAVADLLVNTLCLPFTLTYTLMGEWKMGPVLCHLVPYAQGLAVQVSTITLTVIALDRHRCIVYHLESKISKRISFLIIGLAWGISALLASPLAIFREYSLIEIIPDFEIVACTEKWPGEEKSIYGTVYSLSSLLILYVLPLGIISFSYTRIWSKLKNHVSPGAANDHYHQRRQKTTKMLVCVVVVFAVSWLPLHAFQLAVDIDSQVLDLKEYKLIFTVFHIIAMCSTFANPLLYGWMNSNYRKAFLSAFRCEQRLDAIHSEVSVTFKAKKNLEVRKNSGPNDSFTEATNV
Test: RBA: displacement of [125I]-PYY from hY2R/CHO membranes
Non-standard residues stand in square brackets, D forms with d. 4Pal = N[C@@H](Cc1ccncc1)C(=O)O; Cha = N[C@@H](CC1CCCCC1)C(=O)O; Aib = CC(C)(N)C(=O)O
Measured Endpoint: IC50 Ratio (IC50 compound/IC50 PYY(3-36))

[
  {
    "Binder": "Ac-Q[dP]R[4Pal][Cha][Aib]NK[Aib]TRQR[Cha]-NH2 (SMILES CC(=O)N[C@@H](CCC(N)=O)C(=O)N1CCC[C@@H]1C(=O)N[C@@H](CCCNC(=N)N)C(=O)N[C@@H](Cc1ccncc1)C(=O)N[C@@H](CC1CCCCC1)C(=O)NC(C)(C)C(=O)N[C@@H](CC(N)=O)C(=O)N[C@@H](CCCCN)C(=O)NC(C)(C)C(=O)N[C@H](C(=O)N[C@@H](CCCNC(=N)N)C(=O)N[C@@H](CCC(N)=O)C(=O)N[C@@H](CCCNC(=N)N)C(=O)N[C@@H](CC1CCCCC1)C(N)=O)[C@@H](C)O) [Ac-[Gln23, D-Pro24, Pya(4)26, Cha27,36, Aib28,31, Lys30]-PYY(23-36)]",
    "Measurement": 1.3
  },
  {
    "Binder": "Ac-AS[dP]R[4Pal][Cha][Aib]NK[Aib]TRQR[Cha]-NH2 (SMILES CC(=O)N[C@@H](C)C(=O)N[C@@H](CO)C(=O)N1CCC[C@@H]1C(=O)N[C@@H](CCCNC(=N)N)C(=O)N[C@@H](Cc1ccncc1)C(=O)N[C@@H](CC1CCCCC1)C(=O)NC(C)(C)C(=O)N[C@@H](CC(N)=O)C(=O)N[C@@H](CCCCN)C(=O)NC(C)(C)C(=O)N[C@H](C(=O)N[C@@H](CCCNC(=N)N)C(=O)N[C@@H](CCC(N)=O)C(=O)N[C@@H](CCCNC(=N)N)C(=O)N[C@@H](CC1CCCCC1)C(N)=O)[C@@H](C)O) [Ac-[D-Pro24, Pya(4)26, Cha27,36, Aib28,31, Lys30]-PYY(22-36)]",
    "Measurement": 2.3
  },
  {
    "Binder": "Ac-AE[dP]R[4Pal][Cha][Aib]NK[Aib]TRQR[Cha]-NH2 (SMILES CC(=O)N[C@@H](C)C(=O)N[C@@H](CCC(=O)O)C(=O)N1CCC[C@@H]1C(=O)N[C@@H](CCCNC(=N)N)C(=O)N[C@@H](Cc1ccncc1)C(=O)N[C@@H](CC1CCCCC1)C(=O)NC(C)(C)C(=O)N[C@@H](CC(N)=O)C(=O)N[C@@H](CCCCN)C(=O)NC(C)(C)C(=O)N[C@H](C(=O)N[C@@H](CCCNC(=N)N)C(=O)N[C@@H](CCC(N)=O)C(=O)N[C@@H](CCCNC(=N)N)C(=O)N[C@@H](CC1CCCCC1)C(N)=O)[C@@H](C)O) [Ac-[Glu23, D-Pro24, Pya(4)26, Cha27,36, Aib28,31, Lys30]-PYY(22-36)]",
    "Measurement": 5.3
  },
  {
    "Binder": "Ac-S[dP]K(Ac)[4Pal][Cha][Aib]NK[Aib]TRQR[Cha]-NH2 (SMILES CC(=O)NCCCC[C@H](NC(=O)[C@H]1CCCN1C(=O)[C@H](CO)NC(C)=O)C(=O)N[C@@H](Cc1ccncc1)C(=O)N[C@@H](CC1CCCCC1)C(=O)NC(C)(C)C(=O)N[C@@H](CC(N)=O)C(=O)N[C@@H](CCCCN)C(=O)NC(C)(C)C(=O)N[C@H](C(=O)N[C@@H](CCCNC(=N)N)C(=O)N[C@@H](CCC(N)=O)C(=O)N[C@@H](CCCNC(=N)N)C(=O)N[C@@H](CC1CCCCC1)C(N)=O)[C@@H](C)O) [Ac-[D-Pro24, Lys(Ac)25, Pya(4)26, Cha27,36, Aib28,31, Lys30]-PYY(23-36)]",
    "Measurement": 6.6
  }
]
